Hey, just so you know, these numbers are from ChEMBL document CHEMBL3885861.

# Species on record: Rattus norvegicus
# method.summary: Open TG-GATES - Regimen: Daily Repeat
# Assay type: toxicity, organism-based, Sprague-Dawley
# Parameters: regimen Daily Repeat, gender Male, age 6 weeks
# condition.description: in vivo, po, 100 mg/kg, […], tissue Plasma, route gavage, dose level Low, time 14 day
property.label: GLC (mg/dL)
All answers are understood in mg/dL, so give the number only.

Please review the following examples before continuing.
# chemical.string, val
measured = [
    ("Cc1nnc2n1-c1ccc(Cl)cc1C(c1ccccc1Cl)=NC2", 189.6),
    ("O=C(OC[C@H]1O[C@@H](OC(=O)c2cc(O)c(O)c(OC(=O)c3cc(O)c(O)c(O)c3)c2)[C@H](OC(=O)c2cc(O)c(O)c(OC(=O)c3cc(O)c(O)c(O)c3)c2)[C@@H](OC(=O)c2cc(O)c(O)c(OC(=O)c3cc(O)c(O)c(O)c3)c2)[C@@H]1OC(=O)c1cc(O)c(O)c(OC(=O)c2cc(O)c(O)c(O)c2)c1)c1cc(O)c(O)c(OC(=O)c2cc(O)c(O)c(O)c2)c1", 207.5),
    ("COC(=O)C1=C(C)NC(C)=C(C(=O)OC)C1c1ccccc1[N+](=O)[O-]", 177.4),
    ("CN/C(=N/CCSCc1nc[nH]c1C)NC#N", 205.2),
    ("CNC(=C[N+](=O)[O-])NCCSCc1ccc(CN(C)C)o1", 190.4),
]

Please look at the following molecule next.
## Input Record request: GLC value, item CCOc1ccc(NC(C)=O)cc1
## Output 184.2

----------
# Species on record: Rattus norvegicus
# method.summary: Open TG-GATES - Regimen: Single
# Assay type: toxicity, organism-based, Sprague-Dawley
# Parameters: regimen Single, gender Male, age 6 weeks
# condition.description: in vivo, po, 300 mg/kg, 9 h, tissue Plasma, route gavage, dose level Middle
Classification field: enter 1 (yes) for ALP values not below 800 IU/L, 0 (no) for values below it.

Recorded results for 2 molecules are shown here.
# chemical.string, class
measured = [
    ("Cc1nnc2n1-c1ccc(Cl)cc1C(c1ccccc1Cl)=NC2", "1 (yes)"),
    ("O=C(OC[C@H]1O[C@@H](OC(=O)c2cc(O)c(O)c(OC(=O)c3cc(O)c(O)c(O)c3)c2)[C@H](OC(=O)c2cc(O)c(O)c(OC(=O)c3cc(O)c(O)c(O)c3)c2)[C@@H](OC(=O)c2cc(O)c(O)c(OC(=O)c3cc(O)c(O)c(O)c3)c2)[C@@H]1OC(=O)c1cc(O)c(O)c(OC(=O)c2cc(O)c(O)c(O)c2)c1)c1cc(O)c(O)c(OC(=O)c2cc(O)c(O)c(O)c2)c1", "1 (yes)"),
]

## Input Does the reported ALP for COC(=O)C1=C(C)NC(C)=C(C(=O)OC)C1c1ccccc1[N+](=O)[O-] fall at or above the 800 IU/L mark?
## Output 1 (yes)

## Input Does the reported ALP for CNC(=C[N+](=O)[O-])NCCSCc1ccc(CN(C)C)o1 fall at or above the 800 IU/L mark?
## Output 0 (no)

----------
A collection of compounds and their measured AST
# Organism: Rattus norvegicus
# method.summary: Open TG-GATES - Regimen: Daily Repeat
# Assay type: toxicity, organism-based, Sprague-Dawley
# Parameters: regimen Daily Repeat, gender Male, age 6 weeks
# condition.description: in vivo, po, 0 mg/kg, […], tissue Plasma, route gavage, dose level Control, time 14 day
All answers are understood in IU/L, so give the number only.

Please review the following examples before continuing.
# compound, unit.abbrev, AST
records = [
    ("O=C(OC[C@H]1O[C@@H](OC(=O)c2cc(O)c(O)c(OC(=O)c3cc(O)c(O)c(O)c3)c2)[C@H](OC(=O)c2cc(O)c(O)c(OC(=O)c3cc(O)c(O)c(O)c3)c2)[C@@H](OC(=O)c2cc(O)c(O)c(OC(=O)c3cc(O)c(O)c(O)c3)c2)[C@@H]1OC(=O)c1cc(O)c(O)c(OC(=O)c2cc(O)c(O)c(O)c2)c1)c1cc(O)c(O)c(OC(=O)c2cc(O)c(O)c(O)c2)c1 [TANNIC ACID]", "IU/L", 58.8),
    ("Cc1nnc2n1-c1ccc(Cl)cc1C(c1ccccc1Cl)=NC2 [TRIAZOLAM]", "IU/L", 79.6),
    ("COC(=O)C1=C(C)NC(C)=C(C(=O)OC)C1c1ccccc1[N+](=O)[O-] [NIFEDIPINE]", "IU/L", 65),
]

## Input Record request: AST value, item NC1=NC(=O)C(c2ccccc2)O1 (stereo not drawn) [PEMOLINE]
## Output 71.8

## Input Record request: AST value, item CCCc1cc(=O)[nH]c(=S)[nH]1 [PROPYLTHIOURACIL]
## Output 59.4

## Input Record request: AST value, item Nc1c2c(nc3ccccc13)CCCC2 [TACRINE]
## Output 72

----------
# Organism: Rattus norvegicus
# method.summary: Open TG-GATES - Regimen: Daily Repeat
# Type: toxicity, organism-based, Sprague-Dawley
# Parameters: regimen Daily Repeat, gender Male, age 6 weeks
# condition.description: in vivo, po, 300 mg/kg, 72 h, tissue Kidney, route gavage, dose level Middle, time 3 day
A collection of compounds and their measured KIDNEY_TOTAL
All answers are understood in g, so give the number only.

## Input Record request: KIDNEY_TOTAL value, item O=C(OC[C@H]1O[C@@H](OC(=O)c2cc(O)c(O)c(OC(=O)c3cc(O)c(O)c(O)c3)c2)[C@H](OC(=O)c2cc(O)c(O)c(OC(=O)c3cc(O)c(O)c(O)c3)c2)[C@@H](OC(=O)c2cc(O)c(O)c(OC(=O)c3cc(O)c(O)c(O)c3)c2)[C@@H]1OC(=O)c1cc(O)c(O)c(OC(=O)c2cc(O)c(O)c(O)c2)c1)c1cc(O)c(O)c(OC(=O)c2cc(O)c(O)c(O)c2)c1 [TANNIC ACID]
## Output 1.9

## Input Record request: KIDNEY_TOTAL value, item CCOc1ccc(NC(C)=O)cc1 [PHENACETIN]
## Output 2

----------
# Species: Rattus norvegicus
# method.summary: Open TG-GATES - Regimen: Daily Repeat
# Format: toxicity, organism-based, Sprague-Dawley
# Parameters: regimen Daily Repeat, gender Male, age 6 weeks
# condition.description: in vivo, po, 1000 mg/kg, […], tissue Plasma, route gavage, dose level High, time 28 day
A collection of compounds and their measured GLC
Enter the number, and then the unit.

Please review the following examples before continuing.
# chemical.string, val
data = [
    ("CN/C(=N/CCSCc1nc[nH]c1C)NC#N", "284 mg/dL"),
    ("COC(=O)C1=C(C)NC(C)=C(C(=O)OC)C1c1ccccc1[N+](=O)[O-]", "162.8 mg/dL"),
    ("CCOc1ccc(NC(C)=O)cc1", "157 mg/dL"),
    ("Cc1nnc2n1-c1ccc(Cl)cc1C(c1ccccc1Cl)=NC2", "181 mg/dL"),
    ("CNC(=C[N+](=O)[O-])NCCSCc1ccc(CN(C)C)o1", "198.6 mg/dL"),
]

## Input Record request: GLC value, item O=C(OC[C@H]1O[C@@H](OC(=O)c2cc(O)c(O)c(OC(=O)c3cc(O)c(O)c(O)c3)c2)[C@H](OC(=O)c2cc(O)c(O)c(OC(=O)c3cc(O)c(O)c(O)c3)c2)[C@@H](OC(=O)c2cc(O)c(O)c(OC(=O)c3cc(O)c(O)c(O)c3)c2)[C@@H]1OC(=O)c1cc(O)c(O)c(OC(=O)c2cc(O)c(O)c(O)c2)c1)c1cc(O)c(O)c(OC(=O)c2cc(O)c(O)c(O)c2)c1
## Output 199.2 mg/dL

----------
# Species: Rattus norvegicus
# method.summary: Open TG-GATES - Regimen: Single
# Type: toxicity, organism-based, Sprague-Dawley
# Set-up: regimen Single, gender Male, age 6 weeks
# condition.description: in vivo, po, 0 mg/kg, 6 h, tissue Plasma, route gavage, dose level Control
A collection of molecules and their measured Na
All answers are understood in meq/L, so give the number only.

# molecule, unit.abbrev, Na
rows = [
    ("CN(C)CCC(c1ccc(Cl)cc1)c1ccccn1 (configuration not stated)", "meq/L", 143),
    ("Nc1c2c(nc3ccccc13)CCCC2", "meq/L", 142),
    ("O=C(OC[C@H]1O[C@@H](OC(=O)c2cc(O)c(O)c(OC(=O)c3cc(O)c(O)c(O)c3)c2)[C@H](OC(=O)c2cc(O)c(O)c(OC(=O)c3cc(O)c(O)c(O)c3)c2)[C@@H](OC(=O)c2cc(O)c(O)c(OC(=O)c3cc(O)c(O)c(O)c3)c2)[C@@H]1OC(=O)c1cc(O)c(O)c(OC(=O)c2cc(O)c(O)c(O)c2)c1)c1cc(O)c(O)c(OC(=O)c2cc(O)c(O)c(O)c2)c1", "meq/L", 139.4),
    ("CCOc1ccc(NC(C)=O)cc1", "meq/L", 144),
]

## Input Record request: Na value, item Cc1nnc2n1-c1ccc(Cl)cc1C(c1ccccc1Cl)=NC2
## Output 141.8

## Input Record request: Na value, item CNC(=C[N+](=O)[O-])NCCSCc1ccc(CN(C)C)o1
## Output 140.2

## Input Record request: Na value, item CC(C)NNC(=O)c1ccncc1
## Output 141.4
